Measured absorbance 490 nm/630 nm values are reported for all entries that follow.
# measured.target: full-length recombinant mouse PAD4 (mouse) (UniProt Q9Z183)
# Sequence (Q9Z183 whole entry): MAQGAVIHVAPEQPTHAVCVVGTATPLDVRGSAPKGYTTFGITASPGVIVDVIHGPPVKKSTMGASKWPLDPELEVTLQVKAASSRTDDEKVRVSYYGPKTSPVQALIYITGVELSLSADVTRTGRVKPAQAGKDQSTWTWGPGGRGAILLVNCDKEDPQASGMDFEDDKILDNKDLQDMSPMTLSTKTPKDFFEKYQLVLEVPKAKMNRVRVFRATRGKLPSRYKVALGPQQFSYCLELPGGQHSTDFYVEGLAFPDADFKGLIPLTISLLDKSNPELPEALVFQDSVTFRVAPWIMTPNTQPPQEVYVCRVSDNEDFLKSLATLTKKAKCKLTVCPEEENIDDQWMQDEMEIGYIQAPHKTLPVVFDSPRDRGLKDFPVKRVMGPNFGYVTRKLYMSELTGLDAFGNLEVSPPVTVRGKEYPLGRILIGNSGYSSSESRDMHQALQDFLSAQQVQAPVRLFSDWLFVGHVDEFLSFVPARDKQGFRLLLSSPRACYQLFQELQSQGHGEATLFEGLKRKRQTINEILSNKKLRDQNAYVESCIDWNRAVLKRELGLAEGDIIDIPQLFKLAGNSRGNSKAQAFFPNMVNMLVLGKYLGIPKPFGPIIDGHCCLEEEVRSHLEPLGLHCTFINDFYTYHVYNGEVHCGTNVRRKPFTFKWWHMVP
# test.name: ELISA, mouse PAD4 on plate, antibody 0.0625 ug/mL
endpoint.label: absorbance 490 nm/630 nm (OD)

# binder, units, result.number
data = [
    ("E9 (antibody, IgG1, V domains shown) VH: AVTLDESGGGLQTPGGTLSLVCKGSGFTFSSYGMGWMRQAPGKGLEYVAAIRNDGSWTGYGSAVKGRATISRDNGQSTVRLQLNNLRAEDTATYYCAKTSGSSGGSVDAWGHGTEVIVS VL: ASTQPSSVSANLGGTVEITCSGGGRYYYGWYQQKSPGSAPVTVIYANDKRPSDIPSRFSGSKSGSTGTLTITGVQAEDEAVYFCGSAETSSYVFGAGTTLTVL", "OD", 2.19),
    ("G6 (antibody, IgG1, V domains shown) VH: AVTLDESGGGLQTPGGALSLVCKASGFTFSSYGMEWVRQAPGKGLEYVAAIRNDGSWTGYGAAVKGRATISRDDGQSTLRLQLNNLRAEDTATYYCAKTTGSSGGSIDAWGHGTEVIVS VL: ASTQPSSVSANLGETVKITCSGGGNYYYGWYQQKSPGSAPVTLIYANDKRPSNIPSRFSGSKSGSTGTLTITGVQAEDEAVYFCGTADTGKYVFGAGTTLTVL", "OD", 2.16),
    ("A11 (antibody, IgG1, V domains shown) VH: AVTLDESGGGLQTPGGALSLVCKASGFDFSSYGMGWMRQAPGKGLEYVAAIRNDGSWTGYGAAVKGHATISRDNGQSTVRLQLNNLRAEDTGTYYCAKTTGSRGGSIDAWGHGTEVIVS VL: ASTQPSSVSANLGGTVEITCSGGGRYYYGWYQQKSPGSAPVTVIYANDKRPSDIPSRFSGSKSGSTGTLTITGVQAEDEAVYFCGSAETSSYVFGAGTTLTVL", "OD", 2.24),
]
